- measured.target: T1, human thyroid-stimulating hormone receptor (TSHR) (human, UniProt P16473 21-764)
- T1 construct: whole, on cells; Overexpressed on 293 cells; also called human TSHR
- T1 sequence (P16473 21-764): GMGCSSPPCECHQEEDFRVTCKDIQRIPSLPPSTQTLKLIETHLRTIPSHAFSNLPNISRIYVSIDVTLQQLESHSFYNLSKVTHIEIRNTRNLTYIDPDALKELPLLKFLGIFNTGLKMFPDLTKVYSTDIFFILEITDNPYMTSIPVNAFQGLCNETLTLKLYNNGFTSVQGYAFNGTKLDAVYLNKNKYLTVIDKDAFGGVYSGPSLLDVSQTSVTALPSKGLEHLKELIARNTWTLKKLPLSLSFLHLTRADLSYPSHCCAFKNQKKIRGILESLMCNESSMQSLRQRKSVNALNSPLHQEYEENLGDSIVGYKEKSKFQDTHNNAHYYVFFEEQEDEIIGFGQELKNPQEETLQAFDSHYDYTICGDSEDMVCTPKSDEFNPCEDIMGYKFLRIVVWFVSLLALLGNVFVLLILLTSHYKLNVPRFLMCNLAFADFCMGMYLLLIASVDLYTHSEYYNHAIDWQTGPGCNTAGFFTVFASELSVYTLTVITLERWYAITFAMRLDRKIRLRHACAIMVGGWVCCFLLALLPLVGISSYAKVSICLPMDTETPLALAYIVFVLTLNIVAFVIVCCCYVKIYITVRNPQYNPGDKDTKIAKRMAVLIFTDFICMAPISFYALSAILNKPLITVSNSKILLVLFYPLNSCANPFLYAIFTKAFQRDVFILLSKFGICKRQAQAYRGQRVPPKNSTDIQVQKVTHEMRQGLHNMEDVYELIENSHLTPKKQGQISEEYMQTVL
- assay.method.text: flow cytometry (FACS), 293 cells overexpressing human TSHR
Exercise: state measured pEC50 for each of the binders provided.
One number for each entry, as −log10 of the molar value.

[[record]]
binder = "humanized antibody cAb21-VH1-VL3 (antibody, human IgG4 S228P, kappa, V domains shown, Humanized from mAb021) VH: QVQLVQSGAEVKKPGASVKVSCKASGYTFSNYWMQWVRQAPGQGLEWMGEIDPADSYTAYSQKFKGRVTMTRDTSTSTVYMELSSLRSEDTAVYYCARRNLLRSGDYWGQGTLVTVSS VL: AIQLTQSPSSLSASVGDRVTITCSASSGITYIHWYQQKPGKAPKRWIYDSSKLASGVPARFSGSGSGTDYTLTISSLQPEDFATYYCQQWSGNPPTFGQGTKLEIKR"
property_label = "pEC50"
observed_measurement = 8.06

[[record]]
binder = "humanized antibody cAb12-VH1-QG&S-VL3 (antibody, human IgG4 S228P, kappa, V domains shown, Humanized from mAb012) VH: QVQLVQSGAEVKKPGASVKVSCKASGYTFTDYYMNWVRQAPGQGLEWMGVINPYQGESSNNQKFKGRVTMTRDTSTSTVYMELSSLRSEDTAVYYCARSYGYGYYFDYWGQGTTVTVSS VL: AIQLTQSPSSLSASVGDRVTITCSATSSVTYMHWYQQKPGKAPKRWIYDTSKLTSGVPPRFSGSGSGTDYTLTISSLQPEDFATYYCQQWSTYPYTFGGGTKLEIKR"
property_label = "pEC50"
observed_measurement = 7.98

[[record]]
binder = "humanized antibody cAb21-VH2-VL2 (antibody, human IgG4 S228P, kappa, V domains shown, Humanized from mAb021) VH: QVQLVQSGAEVKKPGASVKVSCKASGYTFSNYWMQWVRQAPGQGLEWIGEIDPADSYTAYSQKFKGRATMTVDTSTSTVYMELSSLRSEDTAVYYCARRNLLRSGDYWGQGTLVTVSS VL: AIQLTQSPSSLSASVGDRVTITCSASSGITYIHWYQQKPGKAPKRWIYDSSKLASGVPSRFSGSGSGTDYTLTISSLQPEDFATYYCQQWSGNPPTFGQGTKLEIKR"
property_label = "pEC50"
observed_measurement = 7.98


# input binder: humanized antibody cAb12-VH3-QG&S-VL3 (antibody, human IgG4 S228P, kappa, V domains shown, Humanized from mAb012) VH: QVQLVQSGAEVKKPGASVKVSCKASGYTFTDYYMNWVKQAPGQGLEWIGVINPYQGESSNNQKFKGRATMTVDKSTSTVYMELSSLRSEDTAVYYCARSYGYGYYFDYWGQGTTVTVSS VL: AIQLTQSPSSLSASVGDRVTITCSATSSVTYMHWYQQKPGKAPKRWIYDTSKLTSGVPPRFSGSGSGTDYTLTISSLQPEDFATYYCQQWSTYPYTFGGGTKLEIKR ; wanted: its pEC50 8.19

The reported measurements were obtained from patent EP4582451A1.
